procedure.details: Initial plasma concentration n Sprague-Dawley rat at 2 mg/kg, iv
Type: ADME, organism-based
Parameters: dose 2 mg/kg, route intravenous
reported.endpoint: C0 (ng/mL)
Report the figure in ng/mL without appending any unit label.

# input Recorded C0 of CC(=O)O[C@@H](C[C@@H](C)C1=C2C[C@H](OC(C)=O)[C@H]3[C@@]4(C)CCC(=O)C(C)(C)[C@@H]4CC[C@]3(C)[C@@]2(C)CC1)[C@@H](OC(C)=O)C(C)(C)OC(C)=O , please.
# output 567

* * *

A collection of compounds and their measured pIC50
System: Hepatitis B virus
procedure.details: Antiviral activity against HBV assessed as inhibition of viral early antigen secretion
Format: functional, organism-based
Kindly note that pIC50 refers to -log10 of the concentration in mol/L and answer with the value alone.

Example entries and their recorded answers appear below.
# input Recorded pIC50 of COCC(=O)OC(C)(C)[C@H](OC(C)=O)[C@H](C[C@@H](C)C1=C2C[C@H](OC(C)=O)[C@H]3[C@@]4(C)CCC(=O)C(C)(C)[C@@H]4CC[C@]3(C)[C@@]2(C)CC1)OC(C)=O , please.
# output 4.92

# input Moving on to CC(=O)OC1=CC[C@@]2(C)[C@@H](CC[C@@]3(C)[C@H]2[C@@H](OC(C)=O)CC2=C([C@H](C)C[C@H](OC(C)=O)[C@@H](OC(C)=O)C(C)(C)OC(C)=O)CC[C@@]23C)C1(C)C
# output 3.55

# input Moving on to Nc1ccn([C@@H]2CS[C@H](CO)O2)c(=O)n1
# output 1.66

Consider the additional compound presented here.
# input Recorded pIC50 of CCOCC(=O)OC(C)(C)[C@H](OC(C)=O)[C@H](C[C@@H](C)C1=C2C[C@H](OC(C)=O)[C@H]3[C@@]4(C)CCC(=O)C(C)(C)[C@@H]4CC[C@]3(C)[C@@]2(C)CC1)OC(C)=O , please.
# output 4.74

* * *

procedure.details: Drug level in Sprague-Dawley rat blood at 2 mg/kg, iv after 0.25 hrs
Type: ADME, organism-based
Set-up: dose 2 mg/kg, route intravenous
run.parameters: read-out: Drug uptake
reported.endpoint: concentration at 0.25 h (ng/mL)
Report the figure in ng/mL without appending any unit label.

# input Recorded concentration at 0.25 h of CC(=O)O[C@@H](C[C@@H](C)C1=C2C[C@H](OC(C)=O)[C@H]3[C@@]4(C)CCC(=O)C(C)(C)[C@@H]4CC[C@]3(C)[C@@]2(C)CC1)[C@@H](OC(C)=O)C(C)(C)OC(C)=O , please.
# output 363

* * *

A collection of compounds and their measured pIC50
System: Hepatitis B virus
procedure.details: Antiviral activity against HBV assessed as inhibition of viral surface antigen secretion
Type: functional, organism-based
pIC50: −log10 of the molar value.

# input Form field: pIC50 recorded for Nc1ccn([C@@H]2CS[C@H](CO)O2)c(=O)n1 [LAMIVUDINE] with Hepatitis B virus (enter value)
# output 1.89

# input Moving on to CC(=O)O[C@@H](C[C@@H](C)[C@]12CC[C@@]3(C)[C@@]1(C[C@H](OC(C)=O)[C@H]1[C@@]4(C)CCC(=O)C(C)(C)[C@@H]4CC[C@@]13C)O2)[C@@H](OC(C)=O)C(C)(C)OC(C)=O
# output 4.34

# input Moving on to C[C@H](C[C@H](OC(=O)/C=C/c1ccccc1Cl)[C@@H](OC(=O)/C=C/c1ccccc1Cl)C(C)(C)OC(=O)/C=C/c1ccccc1Cl)C1=C2C[C@H](OC(=O)/C=C/c3ccccc3Cl)[C@H]3[C@@]4(C)CCC(=O)C(C)(C)[C@@H]4CC[C@]3(C)[C@@]2(C)CC1
# output < 2.85

***
# input Form field: pIC50 recorded for CCCCC(=O)O[C@@H](C[C@@H](C)C1=C2C[C@H](OC(=O)CCCC)[C@H]3[C@@]4(C)CCC(=O)C(C)(C)[C@@H]4CC[C@]3(C)[C@@]2(C)CC1)[C@@H](OC(=O)CCCC)C(C)(C)OC(=O)CCCC with Hepatitis B virus (enter value)
# output < 2.85

Data provenance: ChEMBL document CHEMBL1154649
